protocol_text: Ocular tissue concentrations (aqueous humor, vitreous humor, iris, retina, choroid, cornea) after topical ocular, subcutaneous and intravitreal administration
Type: in vivo, New Zealand White rabbits
stated_conditions: New Zealand White, rabbit, retina homogenate, subcutaneous, 5 mg/kg/dose, Retina homogenate, 2 hr, OD; free acid, subcutaneous 5 mg/kg/dose, Group 3; read-out: Retina Conc. (ng/mL) OD
reported_property: concentration at 2 h (ng/mL)
Report as a plain number; the unit ng/mL is understood.

Req: Please look at this compound and report its concentration at 2 h: COC(=O)N[C@@H](Cc1ccccc1)C(=O)N[C@@H](Cc1ccc(NS(=O)(=O)O)cc1)c1csc(-c2cccs2)n1 [Compound 1]
Resp: 0.574
